Target: Human CD73 (Homo sapiens, UniProt P21589)
Construct: purchased R&D Systems; host or cells: CHO cells
Sequence (P21589 27-549): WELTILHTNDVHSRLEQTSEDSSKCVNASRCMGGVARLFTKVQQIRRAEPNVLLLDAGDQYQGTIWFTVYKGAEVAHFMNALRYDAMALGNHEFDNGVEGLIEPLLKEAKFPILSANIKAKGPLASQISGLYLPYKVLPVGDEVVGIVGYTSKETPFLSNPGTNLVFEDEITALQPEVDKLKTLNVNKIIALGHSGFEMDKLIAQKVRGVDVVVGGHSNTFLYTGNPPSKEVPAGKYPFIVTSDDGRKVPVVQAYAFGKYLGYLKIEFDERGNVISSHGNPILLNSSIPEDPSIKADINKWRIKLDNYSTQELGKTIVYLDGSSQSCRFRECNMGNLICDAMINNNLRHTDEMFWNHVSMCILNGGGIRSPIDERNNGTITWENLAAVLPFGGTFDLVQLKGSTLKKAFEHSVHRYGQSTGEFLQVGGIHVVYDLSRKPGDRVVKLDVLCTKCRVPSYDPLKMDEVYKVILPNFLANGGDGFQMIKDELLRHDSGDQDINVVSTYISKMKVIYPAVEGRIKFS
Assay: CD73 Enzyme Assay
Format: biochemical
Conditions: 0.25 nM hCD73, 25 μM AMP, kinetic read at 360 nm; read-out: CD73 Enzyme Assay IC50
Measured Parameter: IC50

Take a look at these entries with their results.
CC(C)C(=O)COP(=O)(O)COC[C@H]1O[C@@H](n2ccc3c(NC4CCCC4)nc(Cl)nc32)[C@H](O)[C@@H]1O [Compound 222]: 100 to 1000 nM
O=P(O)(O)COC[C@H]1O[C@@H](n2cnc3c(NCc4ccccc4)nc(Cc4ccccc4)nc32)[C@H](O)[C@@H]1O [Compound 22]: 100 to 1000 nM
CC(C)(C)C(=O)OCOP(=O)(O)CS(=O)(=O)C[C@H]1O[C@@H](n2ccc3c(NC4CCCC4)nc(Cl)nc32)[C@H](O)[C@@H]1O [Compound 161]: < 10 nM

// for each compound in input: emit IC50
1. CCNc1nc(C#N)nc2c1ccn2[C@@H]1O[C@H](COCP(=O)(O)O)[C@@H](O)[C@H]1O [Compound 108]
2. CC(C)Nc1nc(Cl)nc2c1ncn2[C@@H]1O[C@H](COCP(=O)(O)O)[C@@H](O)[C@H]1O [Compound 15]
3. O=P(O)(O)COC[C@H]1O[C@@H](n2ccc3c(N4CCC(F)(F)CC4)nc(Cl)nc32)[C@H](O)[C@@H]1O [Compound 128]
4. CC(C)(C)C(=O)OCOP(=O)(C[S+]([O-])C[C@H]1O[C@@H](n2ccc3c(NC4CCCC4)nc(Cl)nc32)[C@H](O)[C@@H]1O)OCOC(=O)C(C)(C)C (stereo partly drawn) [Compound 166]
5. O=P(O)(O)CS(=O)(=O)C[C@H]1O[C@@H](n2ccc3c(N4CC5CCCC5C4)nc(Cl)nc32)[C@H](O)[C@@H]1O (stereo partly drawn) [Compound 156]
6. C[C@@H](O)C#Cc1nc(NC2CCCC2)c2ccn([C@@H]3O[C@H](COCP(=O)(O)O)[C@@H](O)[C@H]3O)c2n1 [Compound 267]

[out]
10 to 100 nM
10 to 100 nM
10 to 100 nM
> 1000 nM
< 10 nM
< 10 nM

====

What IC50 was measured for each of the following?
Target: Human CD73 (Homo sapiens)
Construct: purchased R&D Systems; host or cells: CHO cells
Experiment: CD73 Enzyme Assay
Assay type: biochemical
Settings: 0.25 nM hCD73, 25 μM AMP, kinetic read at 360 nm; read-out: CD73 Enzyme Assay IC50

C[C@H](Nc1nc(Cl)nc2c1ccn2[C@@H]1O[C@H](CS(=O)(=O)CP(=O)(O)O)[C@@H](O)[C@H]1O)c1ccc(F)cc1F [Compound 183]: < 10 nM

Batch request: IC50 per item, same order as input.
1. C[C@H](c1ccccc1)N(C)c1nc(Cl)nc2c1ncn2[C@@H]1O[C@H](COCP(=O)(O)O)[C@@H](O)[C@H]1O [Compound 104]
2. O=P(O)(O)C(SC[C@H]1O[C@@H](n2cnc3c(NCc4ccccc4)ncnc32)[C@H](O)[C@@H]1O)c1ccccc1 (stereo partly shown) [Compound 149]
3. O=P(O)(O)COC[C@H]1O[C@@H](n2cnc3c(NCc4ccccc4)ncnc32)[C@H](O)[C@@H]1O [Compound 1]

[out]
1: 10 to 100 nM; 2: > 1000 nM; 3: > 1000 nM

Where these numbers come from: patent US11591355B2
